- System: UACC-62 melanoma
- Method Summary: NCI tumour cell line growth inhibition, 48 h; in the data active = GI50 below about 0.43 µM; inactive = the rest
Labels: Y for active, N for inactive

Compound	Label Value
O=C(O)[C@@H]1CCCCN1Cc1cc2cc3c(cc2c2cc(OCc4ccccc4)ccc12)OCO3	N
CCOC(=O)c1c(C)nc2c(c1N)/C(=C/c1ccc(OC)cc1)C(=O)N2Cc1ccc(F)cc1	Y
c1cc[c]([Pb]([c]2ccccc2)[c]2ccccc2)cc1	N
C=C1CC[C@@H]2[C@](C)(COC(C)=O)[C@H](OC(C)=O)CC[C@@]2(C)[C@@H]1CC(Nc1ccc(S(=O)(=O)Nc2ncccn2)cc1)C1=CCOC1=O (some centres undefined)	N
